Quick reference: growth inhibition of the listed items.
Assay: NCI Yeast Anticancer Drug Screen. Data for the cln2 rad14 strain (AID 165);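 note: 0% = growth equal to vehicle treated cultures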
Settings: S. cerevisiae cln2 rad14 strain, at 50.0 µM, active compounds read high
This is part of a sample that, as a whole, favours compounds with a hit. Of some 79,000 tested, about 15% had one in any assay.
The reply should be a number in %, with the unit left off.

[[record]]
compound = "C[N+](C)(C)CC1CCCC1=O (stereo unspecified)"
measurement_units = "%"
assay_value = 19.2

[[record]]
compound = "O=C(Cc1c[nH]c2ccccc12)N/N=C\\c1ccc(N(CCCl)CCCl)cc1"
measurement_units = "%"
assay_value = 31.9

[[record]]
compound = "Cn1c(=O)c2ncnnc2n(C)c1=O"
measurement_units = "%"
assay_value = 0.5

[[record]]
compound = "CC(NC(=O)C(c1ccccc1)c1ccccc1)C(=O)O (stereo unspecified)"
measurement_units = "%"
assay_value = -17.2

[[record]]
compound = "NCCNCCNCCNCCN (tested in a mixture with another compound)"
measurement_units = "%"
assay_value = 35.8


# input for lookup
Exam item: Which value of growth inhibition has been reported for O=C(CN1CCCCC1)c1ccc(Br)cc1 in the records?
Marked response: -20.9
